Documented IC50 across a set of compounds
# Measurement Target: N-acyl-phosphatidylethanolamine-hydrolyzing phospholipase D (Homo sapiens, UniProt Q6IQ20)
# Sequence (Q6IQ20 whole entry): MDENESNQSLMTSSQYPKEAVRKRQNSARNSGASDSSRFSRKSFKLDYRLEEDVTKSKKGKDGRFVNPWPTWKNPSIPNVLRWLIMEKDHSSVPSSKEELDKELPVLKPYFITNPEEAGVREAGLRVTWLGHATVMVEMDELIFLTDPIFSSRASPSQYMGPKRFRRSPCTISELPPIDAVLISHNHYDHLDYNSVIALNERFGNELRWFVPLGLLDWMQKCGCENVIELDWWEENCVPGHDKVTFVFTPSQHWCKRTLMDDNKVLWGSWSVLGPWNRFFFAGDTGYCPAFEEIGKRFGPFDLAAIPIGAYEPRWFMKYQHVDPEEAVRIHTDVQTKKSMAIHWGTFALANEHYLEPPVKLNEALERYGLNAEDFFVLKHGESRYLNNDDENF
# Method Summary: Inhibition of full length human NAPE-PLD expressed in HEK293T cell lysate using PED6 as substrate preincubated for 30 mins followed by substrate addition and measured at 2 mins interval for 1 hr by tecan-plate reader analysis
# Assay type: subcellular

Past entries and their recorded results:
CN(CCc1ccccc1)c1nc(C(=O)NCC2CC2)cc(N2CCS(=O)(=O)CC2)n1	> 50.1 µM
CNC(=O)c1cc(N2CCOCC2)nc(N(C)CCc2ccccc2)n1	13.5 µM
CN(CCc1ccccc1)c1nc(C(=O)O)cc(N2CCOCC2)n1	> 50.1 µM

Ask | Which IC50 is reported for this compound? O=C(NCC1CC1)c1cc(N2CCOCC2)ncn1
Reply | > 50.1 µM

Ask | Which IC50 is reported for this compound? CN(CCc1ccccc1)c1nc(C(=O)NCC(=O)O)cc(N2CCOCC2)n1
Reply | > 50.1 µM
